target: KRAS G12C (Homo sapiens, UniProt P01116, G12C); construct: HIS-KRAS (G12C, aa 2-185, Sino biological); assay: SOS1 catalyzed nucleotide exchange assay (TR-FRET); conditions: GDP-loaded HIS-KRAS(G12C), 1 hour pre-incubation with compound
Sequence (P01116 2-185 isoform P01116-2 G12C): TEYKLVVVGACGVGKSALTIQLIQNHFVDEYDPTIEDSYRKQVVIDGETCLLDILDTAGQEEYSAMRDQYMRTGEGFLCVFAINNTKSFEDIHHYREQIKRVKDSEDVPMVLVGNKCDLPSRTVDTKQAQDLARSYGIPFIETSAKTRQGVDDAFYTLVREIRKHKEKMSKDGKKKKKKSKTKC
Experimental Endpoint: pIC50
Bear in mind: pIC50 is minus log10 of a mol/L concentration; give just that figure.

Look over these answered cases.
Bench note: what pIC50 did C=CC(=O)N1CCN(c2nc(OCC3(CN4CCCC4)CC3)nc3c2CCN(c2cccc(Cl)c2Cl)C3)CC1CC#N (centres unmarked) [Compound 35] show? 7.75

# lookup: pIC50 of C=CC(=O)N1CCN(c2nc(OCC3(CN(C)C)CC3)nc3c2CCN(c2cccc4ccccc24)C3)CC1CC#N (centres unmarked) [Compound 37] 8.17

Need pIC50 of C=CC(=O)N1CCN(c2nc(OCC3(CN4CCC4)CC3)nc3c2CCN(c2cccc4cccc(Cl)c24)C3)CC1CC#N (centres unmarked) [Compound 42] , thanks. 8.28

***
Recorded pIC50 for C=CC(=O)N1CCN(c2nc(OCC3(CN4CCCC4)CC3)nc3c2CCN(c2cccc(F)c2C(F)(F)F)C3)CC1CC#N (centres unmarked) [Compound 34] , please? 7.80

Which measured pIC50 value corresponds to C=CC(=O)N1CCN(c2nc(OCC3(CN4CCOCC4)CC3)nc3c2CCN(c2cccc(Cl)c2C(F)(F)F)C3)CC1CC#N (centres unmarked) [Compound 40] ? 7.62

I would be grateful if you could share the reported pIC50 for C=CC(=O)N1CCN(c2nc(OCC3CCCC(N(C)C)C3)nc3c2CCN(c2cccc4ccccc24)C3)CC1CC#N (centres unmarked) [Compound 15] . 6.48

What value of pIC50 has been reported for the following molecule? C=CC(=O)N1CCN(c2nc(OCC3CCCC(N(C)C)C3)nc3c2CCN(c2cccc4cccc(C)c24)C3)CC1CC#N (centres unmarked) [Compound 5] 7.71

----------
test system: Phospho-ERK1/2(THR202/TYR204) in NCI-H358 cells express KRAS G12C; assay: Phospho-ERK1/2(THR202/TYR204) HTRF assay; type: cell-based; settings: Homo sapiens; NCI-H358, 2 hours incubation; read-out: p-ERK inhibition in NCI-H358 IC50
pIC50: −log10 of the molar value.
Assign Fulfilled to entries whose pIC50 meets or exceeds 7; assign Not fulfilled to the rest.

Please review the entries below; each comes with its answer.
Please tell me: is the compound C=CC(=O)N1CCN(c2nc(OCC3(N(C)C)CCC3)nc3c2CCN(c2cccc4ccccc24)C3)CC1CC#N (centres unmarked) at or over 7 in terms of pIC50? Not fulfilled

Is reported pIC50 greater than or equal to 7 here: C=CC(=O)N1CCN(c2nc(OC3CCCCC3N(C)C)nc3c2CCN(c2cccc4ccccc24)C3)CC1CC#N (centres unmarked) Not fulfilled

Does pIC50 meet or surpass 7 for C=CC(=O)N1CCN(c2nc(OCC3(CN(C)C)CC3)nc3c2CCN(c2cccc4ncsc24)C3)CC1CC#N (centres unmarked) ? Not fulfilled

Hello, I need to know if `C=CC(=O)N1CCN(c2nc(OCC3(CN4CCCC4)CC3)nc3c2CCN(c2cccc4cccc(C)c24)C3)C[C@@H]1CC#N` has measured pIC50 not below 7. Thanks! Fulfilled

Hi, just wondering whether C=CC(=O)N1CCN(c2nc(OCC3CC3CN(C)C)nc3c2CCN(c2cccc4ccccc24)C3)CC1CC#N (centres unmarked) shows pIC50 of 7 or higher. Not fulfilled

Evaluate C=CC(=O)N1CCN(c2nc(OCC3(CN4CCN(C(C)=O)CC4)CC3)nc3c2CCN(c2cccc4cccc(C)c24)C3)CC1CC#N (centres unmarked) : pIC50 at minimum 7? Fulfilled

New cases:
State whether the measured pIC50 reaches 7, counting equality as reaching it, for C=CC(=O)N1CCN(c2nc(OCC3CCCC(N(C)C)C3)nc3c2CCN(c2cccc4ccccc24)C3)CC1CC#N (centres unmarked) Not fulfilled

Form field: pIC50 at least 7? Entry: C=CC(=O)N1CCN(c2nc(OCC3(CN4CC(F)C4)CC3)nc3c2CCN(c2cccc4cccc(C)c24)C3)CC1CC#N (centres unmarked) Fulfilled

Kindly determine if pIC50 recorded for C=CC(=O)N1CCN(c2nc(OCC3CC(N(C)C)C3)nc3c2CCN(c2cccc4ccccc24)C3)CC1CC#N (centres unmarked) is above or exactly 7. Not fulfilled

Please check the record C=C(F)C(=O)N1CCN(c2nc(OCC3(CN(C)C)CC3)nc3c2CCN(c2cccc(C)c2C)C3)CC1CC#N (centres unmarked) and state if its pIC50 is at or above 7. Not fulfilled

Quick check: does C=CC(=O)N1CCN(c2nc(OCC3CCCC3N(C)C)nc3c2CCN(c2cccc(F)c2C(F)(F)F)C3)CC1CC#N (centres unmarked) have pIC50 greater than or equal to 7? Not fulfilled

----------
test system: Phospho-ERK1/2(THR202/TYR204) in NCI-H358 cells express KRAS G12C; experiment: Phospho-ERK1/2(THR202/TYR204) HTRF assay; format: cell-based; conditions: Homo sapiens; NCI-H358, 2 hours incubation; read-out: p-ERK inhibition in NCI-H358 IC50
Measured IC50, listed per entry for reference.
# output: bare number, implied unit nM

Example entries and their recorded answers appear below.
Consider the compound C=CC(=O)N1CCN(c2nc(OCC3(N(C)C)CC3)nc3c2CCN(c2cccc4ccccc24)C3)CC1CC#N (stereo not shown) [Compound 12] and give its measured IC50. 518

Can you look up the measured IC50 of C=CC(=O)N1CCN(c2nc(OCC3CCCC(N(C)C)C3)nc3c2CCN(c2cccc4cccc(C)c24)C3)CC1CC#N (stereo not shown) [Compound 5] for me? 330

The record that follows has no IC50 shown yet.
Dear colleague, I am looking for the recorded IC50 of the following compound: C=CC(=O)N1CCN(c2nc(OCC3(CN4CCC4)CC3)nc3c2CCN(c2cccc4cccc(C)c24)C3)CC1CC#N (stereo not shown) [Compound 43] 71.8

----------
system: Phospho-ERK1/2(THR202/TYR204) in NCI-H358 cells express KRAS G12C; assay: Phospho-ERK1/2(THR202/TYR204) HTRF assay; format: cell-based; details: Homo sapiens; NCI-H358, 2 hours incubation; read-out: p-ERK inhibition in NCI-H358 IC50
A collection of molecules and their measured IC50
The answer is to be given in µM; state only the numeric part.

Guide cases for IC50, answers given:
Can you look up the measured IC50 of C=CC(=O)N1CCN(c2nc(OCC3(CN(C)C)CC3)nc3c2CCN(c2c(C)ccc4[nH]ncc24)C3)CC1CC#N (stereo not shown) for me? 0.453

// query IC50 value for entry C=CC(=O)N1CCN(c2nc(OCC3(CN4CCC4)CC3)nc3c2CCN(c2cccc4cccc(Cl)c24)C3)CC1CC#N (stereo not shown) 0.0636

Fill in the blank: the reported IC50 of C=CC(=O)N1CCN(c2nc(OCC3(CN(C)C)CC3)nc3c2CCN(c2cccc4ccsc24)C3)CC1CC#N (stereo not shown) is ____. 0.0838

Data request, read-out IC50, for C=CC(=O)N1CCN(c2nc(OCC3(CN4CCCC4)CC3)nc3c2CCN(c2cccc4cccc(Cl)c24)C3)CC1CC#N (stereo not shown) 0.0162

***
Suppose we examine the molecule C=CC(=O)N1CCN(c2nc(OCC3(CN4CCC4)CC3)nc3c2CCN(c2cccc(Cl)c2C(F)(F)F)C3)CC1CC#N (stereo not shown) ; what IC50 value has been reported? 0.0796

Report IC50 for C=CC(=O)N1CCN(c2nc(OCC3(CN4CCCC4)CC3)nc3c2CCN(c2cccc4ccccc24)C3)CC1CC#N (stereo not shown) please. 0.0977

----------
test system: Phospho-ERK1/2(THR202/TYR204) in NCI-H358 cells express KRAS G12C; experiment: Phospho-ERK1/2(THR202/TYR204) HTRF assay; type: cell-based; settings: Homo sapiens; NCI-H358, 2 hours incubation; read-out: p-ERK inhibition in NCI-H358 IC50
# if measured IC50 < 400 nM: 1.0  # else: 0.0

Examples from the recorded data:
In the record for C=CC(=O)N1CCN(c2nc(OCC3CCCC(N(C)C)C3)nc3c2CCN(c2ccccc2C(F)(F)F)C3)CC1CC#N (stereo not shown) [Compound 6] , is IC50 less than 400 nM? 0.0

# strict comparison: is reported IC50 < 400 nM? input = C=CC(=O)N1CCN(c2nc(OCC3(CN(C)CCN(C)C)CC3)nc3c2CCN(c2cccc4cccc(C)c24)C3)CC1CC#N (stereo not shown) [Compound 64] 1.0

Decide: IC50 of C=C(F)C(=O)N1CCN(c2nc(OCC3(CN(C)C)CC3)nc3c2CCN(c2cccc4cccc(Cl)c24)C3)CC1CC#N (stereo not shown) [Compound 79] strictly below 400 nM? 0.0

Item C=CC(=O)N1CCN(c2nc(OCC3CCCCC3N(C)C)nc3c2CCN(c2cccc4ccccc24)C3)CC1CC#N (stereo not shown) [Compound 18] : IC50 beneath 400 nM, strictly? 0.0

***
State whether 400 nM exceeds IC50 recorded for Cc1cccc2cccc(N3CCc4c(nc(OCC5(CN(C)C)CC5)nc4N4CCN(C(=O)/C=C/CO)C(CC#N)C4)C3)c12 (stereo not shown) [Compound 69] . 1.0

# TODO verify IC50 < 400 nM strictly for this molecule: C=CC(=O)N1CCN(c2nc(OCC3(CN(C)C)CC3)nc3c2CCN(c2cccc(C)c2C)C3)CC1CC#N (stereo not shown) [Compound 48] 1.0
